Subject of test: T1, ATHB17Δ113-C246S (Arabidopsis thaliana, UniProt Q8S9N6 SEQ:1-162)
T1 chain: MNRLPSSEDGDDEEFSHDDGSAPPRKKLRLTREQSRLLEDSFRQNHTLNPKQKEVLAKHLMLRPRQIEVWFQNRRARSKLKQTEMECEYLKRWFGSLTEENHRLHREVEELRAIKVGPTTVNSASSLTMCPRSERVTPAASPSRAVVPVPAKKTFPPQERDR
Experiment notes: SPR
Condition info: chain copies: 2 (homodimer, inferred)
Measurement type: pKd
Hey, just a heads up that pKd is the negative log base 10 of the concentration in molar.

Answer with the recorded pKd of Class II oligo (BS2) (dsDNA) DNA 1: CAGACAATCATTGCGGC DNA 2: GCCGCAATGATTGTCTG only.
7.20
